System: KM-20L2
TEST NAME: NCI tumour cell line growth inhibition, 48 h
Active and inactive are the calls of the source. No stated cut-off is given here; in the data, active = GI50 up to about 1.1 µM and inactive = higher.
Kindly state GI50 for each of the entries shown.

Query :: Which GI50 value belongs to O=S(=O)(c1ccccc1)N1N=C2c3ccccc3CCC[C@H]2C1c1ccccc1 (stereo partly drawn) ?
Result :: > 100 µM (inactive)

Query :: And the next one, COc1ccc(/C=C(\Cl)c2ccc(OC)c(OC)c2)cc1OC ?
Result :: > 100 µM (inactive)

Query :: Next up: CC1(C)CCC[C@@]2(C)C1C[C@H](O)[C@@]1(C)O[C@@](C)([C@H](O)CO)CCC21 (stereo partly drawn)
Result :: 40.5 µM (inactive)

Query :: Same lookup for CS(=O)(=O)c1ccc(-c2cc(-c3ccc(S(C)(=O)=O)cc3)[n+](-c3cc(-c4ccc(S(C)(=O)=O)cc4)c([O-])c(-c4ccc(S(C)(=O)=O)cc4)c3)c(-c3ccc(S(C)(=O)=O)cc3)c2)cc1 , please.
Result :: > 100 µM (inactive)

Query :: Would you mind doing COC1C(=[N+]=[N-])C(=O)NC(=O)N1C1OC(COC(c2ccccc2)(c2ccccc2)c2ccccc2)C(O)C1O (stereo not drawn) as well?
Result :: 17.2 µM (inactive)

Query :: Same lookup for Cc1cc(NS(=O)(=O)c2ccc(NC(=O)c3cccc4c(Nc5ccc(S(=O)(=O)N=C(N)N)cc5)c5ccccc5nc34)cc2)no1 , please.
Result :: > 100 µM (inactive)

Query :: Now the compound C/C(=N\NC(=S)N(C)C)c1ncc[nH]1
Result :: 3.57 µM (inactive)

Query :: // same read-out, input: O=C1N(c2ccccc2)C2(O)C(=O)c3ccccc3C2(O)N1c1ccccc1 (stereo not drawn)
Result :: > 100 µM (inactive)

###

Test system: MOLT-4
TEST NAME: NCI tumour cell line growth inhibition, 48 h
Calls of active or inactive are those of the source. Cut-off read from the data, not from the text of the source: active = GI50 up to about 1.1 µM and inactive = higher.
Can you tell me GI50 for the items I'm about to list?

Query :: Entry O=C(O)CCO/N=C1/C(=C2/C(=O)Nc3ccccc32)Nc2ccccc21 : reported GI50 = ?
Result :: 17.1 µM (inactive)

Query :: Let us now turn to NC(=O)/C=c1/c2ccccc2n2nc3ccccc3c12
Result :: 2.69 µM (inactive)

Query :: Another compound to look at: Cc1cc2nc(N3C(=O)/C(=C/c4cccc([N+](=O)[O-])c4)N=C3c3ccccc3)sc2cc1C
Result :: 12.9 µM (inactive)

Query :: Try this compound next: COC(=O)CN1Cc2cc(C)cc(c2O)CN(CC(=O)OC)Cc2cc(C)cc(c2O)CN(CC(=O)OC)Cc2cc(C)cc(c2O)CN(CC(=O)OC)Cc2cc(C)cc(c2O)C1
Result :: 9.62 µM (inactive)

###

Test system: T47D
TEST NAME: NCI tumour cell line growth inhibition, 48 h
Calls of active or inactive are those of the source. No stated cut-off is given here; in the data, active = GI50 up to about 1.1 µM and inactive = higher.
MEASUREMENT LABEL: GI50

Query :: Which GI50 is reported for this compound? COC(=O)[C@@H]1CN(C(=O)Cc2ccccc2)C(=O)N1
Result :: > 100 µM (inactive)

Query :: Do the same for Cc1ccnc2nc(-c3ccc(Cl)cc3)cc(O)c12 please
Result :: > 24.5 µM (inactive)

Query :: Next record, please: CC(C)(C)OC(=O)NC1CCCCC1NC(=O)C(=O)NC1CCCCC1NC(=O)OC(C)(C)C (stereo unspecified)
Result :: > 100 µM (inactive)

Query :: Similarly, CCOC(=O)C(NC(=O)c1ccccc1)(Nc1ccc(S(=O)(=O)Nc2ccc(OC)nn2)cc1)C(F)(F)F (stereo unspecified) ?
Result :: > 100 µM (inactive)

Query :: Then CC1=NC(C)(COC(=O)C2(C)NC(C)(CO)CO2)COC1=O (stereo unspecified) ?
Result :: > 100 µM (inactive)

Query :: // next record Cc1ccc(Nc2nc(=O)c3c([nH]c4ccccc43)s2)cc1
Result :: 15.4 µM (inactive)

Query :: What would you report for Clc1ccc(C2c3ccccc3-c3nc4ccccc4n32)cc1 (stereo unspecified) ?
Result :: > 27.2 µM (inactive)

Query :: Repeat with CO/C(N)=C(C#N)/N=C/c1ccc2ccccc2c1
Result :: 8.73 µM (inactive)

Query :: Try the compound COc1ccc(NC=O)c(C(O)CCNC(C)=O)c1 (stereo unspecified)
Result :: > 100 µM (inactive)

Query :: Likewise for Fc1ccc(C(OCCN2CCC3CCC(C2)N3C/C=C/c2ccco2)c2ccc(F)cc2)cc1 (stereo unspecified) ?
Result :: 5.14 µM (inactive)

Query :: Lookup Brc1c(C#CCC2CCCCC2)ccc(C#CCC2CCCCC2)c1Br
Result :: > 100 µM (inactive)
